Data provenance is paper PMC6789487.

target_or_system: almond β-glucosidase (EC 3.2.1.21)
assay_method_text: Almond β-glucosidase inhibition, p-nitrophenyl β-D-glucopyranoside substrate, 96-well plate
Format: biochemical
condition: β-Glucosidase from almonds; NI: no inhibition
Experimental: To broaden the scope of the analysis, β-glucosidase (almond) activity of the same set of compounds was conducted using the corresponding p-nitrophenyl β-D-glucopyranoside. Biological assays: Yeast α-glucosidase (EC 3.2.1.20) and almond β-glucosidase (EC 3.2.1.21) activity was assessed using a 96-well plate assay. […]
For each record, write down the corresponding log10 IC50.
Hello, just confirming the data are log10 of IC50 with units of µM.

{"compound": "OCCN1C[C@H](O)[C@@H](O)[C@H](O)[C@@H](O)C1 [41b]", "measured_quantity": "log10 IC50", "experimental_result": 0.60}
{"compound": "C#CCN1C[C@H](O)[C@@H](O)[C@H](O)[C@H]1CO [39a]", "measured_quantity": "log10 IC50", "experimental_result": 2.80}
{"compound": "C#CCN1C[C@H](O)[C@@H](O)[C@H](O)[C@@H](O)C1 [39b]", "measured_quantity": "log10 IC50", "experimental_result": 3.54}
{"compound": "OCCN1C[C@H](O)[C@@H](O)[C@H](O)[C@H]1CO [41a, reference compound]", "measured_quantity": "log10 IC50", "experimental_result": 0.60}
{"compound": "C#CCN1C[C@@H](O)[C@@H](O)[C@H](O)[C@@H]1CO [26a]", "measured_quantity": "log10 IC50", "experimental_result": 3.24}

Now for a further compound.
Requested field: log10 IC50. Item: CCCCN1C[C@H](O)[C@@H](O)[C@H](O)[C@@H](O)C1 [40b, N-Butyl-1,6-dideoxy-1,6-imino-L-iditol]
1.90

* * *

target_or_system: α-glucosidase (from Saccharomyces cerevisiae) (Saccharomyces cerevisiae, UniProt P53341)
Sequence (P53341 whole entry): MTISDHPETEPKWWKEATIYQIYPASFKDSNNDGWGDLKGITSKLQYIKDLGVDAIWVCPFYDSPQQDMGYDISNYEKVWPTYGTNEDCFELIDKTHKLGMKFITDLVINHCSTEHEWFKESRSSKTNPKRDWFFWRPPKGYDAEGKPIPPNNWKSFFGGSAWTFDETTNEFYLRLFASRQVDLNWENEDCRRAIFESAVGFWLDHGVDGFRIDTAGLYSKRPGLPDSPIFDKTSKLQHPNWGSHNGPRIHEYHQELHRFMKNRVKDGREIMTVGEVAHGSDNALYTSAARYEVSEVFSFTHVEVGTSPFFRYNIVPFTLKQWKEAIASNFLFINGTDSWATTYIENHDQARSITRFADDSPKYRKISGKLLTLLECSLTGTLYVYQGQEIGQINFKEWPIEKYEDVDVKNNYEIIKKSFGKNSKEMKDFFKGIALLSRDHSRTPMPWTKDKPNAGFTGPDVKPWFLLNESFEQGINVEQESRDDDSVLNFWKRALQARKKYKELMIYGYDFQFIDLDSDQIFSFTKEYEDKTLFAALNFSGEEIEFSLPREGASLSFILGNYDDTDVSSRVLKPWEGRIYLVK
assay_method_text: Yeast α-glucosidase inhibition, p-nitrophenyl α-D-glucopyranoside substrate, 96-well plate
Format: biochemical
condition: NI: no inhibition, read-out: Inhibition (µM) α-Glucosidase (IC50)
Provide the reported IC50 of each item.

{"compound": "C#CCN1C[C@@H](O)[C@@H](O)[C@H](O)[C@@H]1CO [26a]", "target_or_system": "α-glucosidase (from Saccharomyces cerevisiae) (Saccharomyces cerevisiae, UniProt P53341)", "experimental_result": "> 2000 µM"}
{"compound": "C#CCN1C[C@@H](O)[C@@H](O)[C@H](O)[C@H](O)C1 [26b]", "target_or_system": "α-glucosidase (from Saccharomyces cerevisiae) (Saccharomyces cerevisiae, UniProt P53341)", "experimental_result": "> 2000 µM"}

For every record below, what is its IC50?
1. CCCCN1C[C@H](O)[C@@H](O)[C@H](O)[C@@H](O)C1 [40b, N-Butyl-1,6-dideoxy-1,6-imino-L-iditol]
2. OC[C@H]1[C@@H](O)[C@H](O)[C@H](O)CN1CCc1ccccc1 [29a]
3. C#CCN1C[C@H](O)[C@@H](O)[C@H](O)[C@H]1CO [39a]
4. OCCN1C[C@@H](O)[C@@H](O)[C@H](O)[C@H](O)C1 [28b, N-Hydroxyethyl-1,6-imino-D-mannitol]
5. O[C@H]1[C@H](O)[C@H](O)CN(CCc2ccccc2)C[C@H]1O [29b]

1: > 2000 µM; 2: > 2000 µM; 3: > 2000 µM; 4: > 2000 µM; 5: > 2000 µM

Request the reported IC50 associated with C#CCN1C[C@H](O)[C@@H](O)[C@H](O)[C@@H](O)C1 [39b]
> 2000 µM
